Organism: Rattus norvegicus
Experiment: Open TG-GATES - Regimen: Single
Format: toxicity, organism-based, Sprague-Dawley
Set-up: regimen Single, gender Male, age 6 weeks
Settings: in vivo, po, 0 mg/kg, 3 h, tissue Blood, route gavage, dose level Control
experimental readout: WBC (x10_2/uL)
Report the value in x10_2/uL with no unit label.

O=[N+]([O-])c1ccc(O)c([N+](=O)[O-])c1; 98.2
C[C@H]1C(=O)O[C@@H]2CCN3CC=C(COC(=O)[C@](C)(O)[C@]1(C)O)[C@H]23; 86.4
OCCN1CCN(CCCN2c3ccccc3Sc3ccc(C(F)(F)F)cc32)CC1; 113.1
Cc1cccc(C)c1OCC(C)N (centres undefined); 96.5
C[C@H]1O[C@H](O[C@H]2[C@H](O)[C@@H](O)[C@@H](O[C@H]3[C@H](O)[C@@H](O)C(O)O[C@@H]3CO)O[C@@H]2CO)[C@H](O)[C@@H](O)[C@@H]1N[C@H]1C=C(CO)[C@@H](O)[C@H](O)[C@H]1O (some centres undefined); 97.1

(Q) Query WBC for CCOC(=O)C(C)(C)Oc1ccc(Cl)cc1 [CLOFIBRATE]
(A) 86.9

(Q) Query WBC for Cc1ccc2cc3c(ccc4ccccc43)c3c2c1CC3
(A) 119.3

(Q) Query WBC for Cn1cc[nH]c1=S
(A) 96.4

(Q) Query WBC for C=C(C)[C@H]1Cc2c(ccc3c2O[C@@H]2COc4cc(OC)c(OC)cc4[C@@H]2C3=O)O1
(A) 98.8

---

Items are presented alongside their recorded A/G.
Organism: Rattus norvegicus
Experiment: Open TG-GATES - Regimen: Daily Repeat
Format: toxicity, organism-based, Sprague-Dawley
Set-up: regimen Daily Repeat, gender Male, age 6 weeks
Details: in vivo, po, 0 mg/kg, […], tissue Plasma, route gavage, dose level Control, time 7 day
// return just the number, without any unit appended

O=C1CN(/N=C/c2ccc([N+](=O)[O-])o2)C(=O)N1 [NITROFURANTOIN]; 1.5
Cc1cccc(C)c1OCC(C)N (stereo not drawn) [MEXILETINE]; 1.1
CCOC(=O)C(C)(C)Oc1ccc(Cl)cc1 [CLOFIBRATE]; 1.6

(Q) Query A/G for Cn1cc[nH]c1=S [METHIMAZOLE]
(A) 1.2

(Q) Query A/G for C[C@H]1O[C@H](O[C@H]2[C@H](O)[C@@H](O)[C@@H](O[C@H]3[C@H](O)[C@@H](O)C(O)O[C@@H]3CO)O[C@@H]2CO)[C@H](O)[C@@H](O)[C@@H]1N[C@H]1C=C(CO)[C@@H](O)[C@H](O)[C@H]1O (stereo partly drawn) [ACARBOSE]
(A) 0.8

(Q) Query A/G for C[C@H]1C(=O)O[C@@H]2CCN3CC=C(COC(=O)[C@](C)(O)[C@]1(C)O)[C@H]23 [MONOCROTALINE]
(A) 1.2

(Q) Query A/G for C=C(C)[C@H]1Cc2c(ccc3c2O[C@@H]2COc4cc(OC)c(OC)cc4[C@@H]2C3=O)O1 [ROTENONE]
(A) 2.1

(Q) Query A/G for O=[N+]([O-])c1ccc(O)c([N+](=O)[O-])c1 [2,4-DINITROPHENOL]
(A) 2.2

---

Species: Rattus norvegicus
Test: Open TG-GATES - Regimen: Single
Format: toxicity, organism-based, Sprague-Dawley
Parameters: regimen Single, gender Male, age 6 weeks
Settings: in vivo, po, 0 mg/kg, 24 h, tissue Blood, route gavage, dose level Control
experimental readout: Eos
In your response, the unit should come after the numeric value.

Example entries and their recorded answers appear below.
O=[N+]([O-])c1ccc(O)c([N+](=O)[O-])c1; 1.2%
C[C@H]1C(=O)O[C@@H]2CCN3CC=C(COC(=O)[C@](C)(O)[C@]1(C)O)[C@H]23; 1%
Cn1cc[nH]c1=S; 1%
C[C@H]1O[C@H](O[C@H]2[C@H](O)[C@@H](O)[C@@H](O[C@H]3[C@H](O)[C@@H](O)C(O)O[C@@H]3CO)O[C@@H]2CO)[C@H](O)[C@@H](O)[C@@H]1N[C@H]1C=C(CO)[C@@H](O)[C@H](O)[C@H]1O (stereo not given in full); 1%

(Q) Query Eos for OCCN1CCN(CCCN2c3ccccc3Sc3ccc(C(F)(F)F)cc32)CC1
(A) 0.2%

---

Species: Rattus norvegicus
Test: Open TG-GATES - Regimen: Single
Type: toxicity, organism-based, Sprague-Dawley
Set-up: regimen Single, gender Male, age 6 weeks
Conditions: in vivo, po, 0 mg/kg, 6 h, tissue Kidney, route gavage, dose level Control
experimental readout: KIDNEY_L (g)
Report the value in g with no unit label.

Example entries and their recorded answers appear below.
C[C@H]1C(=O)O[C@@H]2CCN3CC=C(COC(=O)[C@](C)(O)[C@]1(C)O)[C@H]23; 0.9
Cc1cccc(C)c1OCC(C)N (stereo unspecified); 1

(Q) Query KIDNEY_L for OCCN1CCN(CCCN2c3ccccc3Sc3ccc(C(F)(F)F)cc32)CC1
(A) 0.9

(Q) Query KIDNEY_L for Cc1ccc2cc3c(ccc4ccccc43)c3c2c1CC3
(A) 0.9

(Q) Query KIDNEY_L for C[C@H]1O[C@H](O[C@H]2[C@H](O)[C@@H](O)[C@@H](O[C@H]3[C@H](O)[C@@H](O)C(O)O[C@@H]3CO)O[C@@H]2CO)[C@H](O)[C@@H](O)[C@@H]1N[C@H]1C=C(CO)[C@@H](O)[C@H](O)[C@H]1O (stereo partly specified)
(A) 0.9

(Q) Query KIDNEY_L for CCOC(=O)C(C)(C)Oc1ccc(Cl)cc1 [CLOFIBRATE]
(A) 1

---

Species: Rattus norvegicus
Assay: Open TG-GATES - Regimen: Single
Type: toxicity, organism-based, Sprague-Dawley
Parameters: regimen Single, gender Male, age 6 weeks
Settings: in vivo, po, 0 mg/kg, 6 h, tissue Blood, route gavage, dose level Control
Items are presented alongside their recorded Ht.
In your response, the unit should come after the numeric value.

C[C@H]1O[C@H](O[C@H]2[C@H](O)[C@@H](O)[C@@H](O[C@H]3[C@H](O)[C@@H](O)C(O)O[C@@H]3CO)O[C@@H]2CO)[C@H](O)[C@@H](O)[C@@H]1N[C@H]1C=C(CO)[C@@H](O)[C@H](O)[C@H]1O (stereo partly drawn); 40.8%

(Q) Query Ht for Cc1cccc(C)c1OCC(C)N (stereo not drawn)
(A) 39.5%

(Q) Query Ht for CCOC(=O)C(C)(C)Oc1ccc(Cl)cc1 [CLOFIBRATE]
(A) 39.7%

(Q) Query Ht for C[C@H]1C(=O)O[C@@H]2CCN3CC=C(COC(=O)[C@](C)(O)[C@]1(C)O)[C@H]23
(A) 39.5%

(Q) Query Ht for Cc1ccc2cc3c(ccc4ccccc43)c3c2c1CC3
(A) 38.9%

(Q) Query Ht for Cn1cc[nH]c1=S
(A) 38.4%

(Q) Query Ht for O=[N+]([O-])c1ccc(O)c([N+](=O)[O-])c1
(A) 39.8%

(Q) Query Ht for C=C(C)[C@H]1Cc2c(ccc3c2O[C@@H]2COc4cc(OC)c(OC)cc4[C@@H]2C3=O)O1
(A) 40.3%

---

Species: Rattus norvegicus
Assay: Open TG-GATES - Regimen: Single
Type: toxicity, organism-based, Sprague-Dawley
Parameters: regimen Single, gender Male, age 6 weeks
Details: in vivo, po, 0 mg/kg, 6 h, tissue Plasma, route gavage, dose level Control
experimental readout: K (meq/L)
Report the value in meq/L with no unit label.

O=[N+]([O-])c1ccc(O)c([N+](=O)[O-])c1; 4.4
CCOC(=O)C(C)(C)Oc1ccc(Cl)cc1 [CLOFIBRATE]; 3.9
Cc1ccc2cc3c(ccc4ccccc43)c3c2c1CC3; 4.3

(Q) Query K for C[C@H]1O[C@H](O[C@H]2[C@H](O)[C@@H](O)[C@@H](O[C@H]3[C@H](O)[C@@H](O)C(O)O[C@@H]3CO)O[C@@H]2CO)[C@H](O)[C@@H](O)[C@@H]1N[C@H]1C=C(CO)[C@@H](O)[C@H](O)[C@H]1O (some centres undefined)
(A) 3.7

(Q) Query K for Cn1cc[nH]c1=S
(A) 4.4

(Q) Query K for Cc1cccc(C)c1OCC(C)N (centres undefined)
(A) 4.2

(Q) Query K for C=C(C)[C@H]1Cc2c(ccc3c2O[C@@H]2COc4cc(OC)c(OC)cc4[C@@H]2C3=O)O1
(A) 4.4

(Q) Query K for C[C@H]1C(=O)O[C@@H]2CCN3CC=C(COC(=O)[C@](C)(O)[C@]1(C)O)[C@H]23
(A) 4.2

(Q) Query K for OCCN1CCN(CCCN2c3ccccc3Sc3ccc(C(F)(F)F)cc32)CC1
(A) 4.7

---

Species on record: Rattus norvegicus
Test: Open TG-GATES - Regimen: Single
Type: toxicity, organism-based, Sprague-Dawley
Parameters: regimen Single, gender Male, age 6 weeks
Settings: in vivo, po, 0 mg/kg, 24 h, tissue Blood, route gavage, dose level Control
experimental readout: MCH
In your response, the unit should come after the numeric value.

(Q) Query MCH for C=C(C)[C@H]1Cc2c(ccc3c2O[C@@H]2COc4cc(OC)c(OC)cc4[C@@H]2C3=O)O1 [ROTENONE]
(A) 21.6 pg

(Q) Query MCH for Cn1cc[nH]c1=S [METHIMAZOLE]
(A) 22.1 pg

(Q) Query MCH for O=[N+]([O-])c1ccc(O)c([N+](=O)[O-])c1 [2,4-DINITROPHENOL]
(A) 21.1 pg

(Q) Query MCH for C[C@H]1C(=O)O[C@@H]2CCN3CC=C(COC(=O)[C@](C)(O)[C@]1(C)O)[C@H]23 [MONOCROTALINE]
(A) 20.8 pg

(Q) Query MCH for Cc1ccc2cc3c(ccc4ccccc43)c3c2c1CC3 [3-METHYLCHOLANTHRENE]
(A) 20.5 pg

(Q) Query MCH for OCCN1CCN(CCCN2c3ccccc3Sc3ccc(C(F)(F)F)cc32)CC1 [FLUPHENAZINE]
(A) 22.4 pg

(Q) Query MCH for Cc1cccc(C)c1OCC(C)N (centres undefined) [MEXILETINE]
(A) 20.6 pg

(Q) Query MCH for C[C@H]1O[C@H](O[C@H]2[C@H](O)[C@@H](O)[C@@H](O[C@H]3[C@H](O)[C@@H](O)C(O)O[C@@H]3CO)O[C@@H]2CO)[C@H](O)[C@@H](O)[C@@H]1N[C@H]1C=C(CO)[C@@H](O)[C@H](O)[C@H]1O (some centres undefined) [ACARBOSE]
(A) 20.7 pg

(Q) Query MCH for CCOC(=O)C(C)(C)Oc1ccc(Cl)cc1 [CLOFIBRATE]
(A) 20.7 pg
